- Test system: OVCAR-8 ovarian
- experimental.protocol: NCI tumour cell line growth inhibition, 384-well format
assay.metric: TGI (µM)
Write the number in µM without appending the unit.

[[record]]
smiles_representation = "O=C(NO)c1ccc(CN(c2cnccn2)c2cnccn2)cc1"
unit_text = "µM"
recorded_result = 3.86


Let us move to another entry and its TGI.
Ask: # lookup: OVCAR-8 ovarian TGI, key = CN1CCN(c2ccc(Nc3ncc4cc(C#N)c(=O)n(C5CCCC5)c4n3)cc2)CC1
Reply: 37.2

---

- Test system: PC-3 prostate
- experimental.protocol: NCI tumour cell line growth inhibition, 384-well format
assay.metric: TGI (µM)
Respond with the bare value in µM.

[[record]]
smiles_representation = "CC[C@@]1(O)C(=O)OCc2c1cc1n(c2=O)Cc2c-1nc1cc(F)c(C)c3c1c2[C@@H](N)CC3"
assay_system = "PC-3 prostate"
recorded_result = 1.05


Consider the additional compound presented here.
Ask: GET TGI where system = PC-3 prostate and item = CN1CCN(c2ccc(Nc3ncc4cc(C#N)c(=O)n(C5CCCC5)c4n3)cc2)CC1
Reply: 46.5

---

- System: 786-0 renal
- experimental.protocol: NCI tumour cell line growth inhibition, 384-well format
assay.metric: TGI

Below, 4 compounds whose answers are already recorded.
[[record]]
smiles_representation = "O=C(NO)c1ccc(CN(c2cnccn2)c2cnccn2)cc1"
assay_system = "786-0 renal"
recorded_result = "27.8 µM"

[[record]]
smiles_representation = "CC[C@@]1(O)C(=O)OCc2c1cc1n(c2=O)Cc2c-1nc1cc(F)c(C)c3c1c2[C@@H](N)CC3"
assay_system = "786-0 renal"
recorded_result = "< 0.01 µM"

[[record]]
smiles_representation = "COc1ccc2c(Oc3ccc(NC(=O)c4c(C)n(CC(C)(C)O)n(-c5ccccc5)c4=O)nc3)ccnc2c1"
assay_system = "786-0 renal"
recorded_result = "> 100 µM"

[[record]]
smiles_representation = "CN1CCN(c2ccc(Nc3ncc4cc(C#N)c(=O)n(C5CCCC5)c4n3)cc2)CC1"
assay_system = "786-0 renal"
recorded_result = "28.2 µM"


In the following, a different compound is considered.
Ask: Return the recorded TGI value; entry: O=C(NCc1ccc(S(=O)(=O)c2cc(F)cc(F)c2)cc1)c1ccc2nccn2c1
Reply: < 0.01 µM

---

- System: TK-10 renal
- experimental.protocol: NCI tumour cell line growth inhibition, 384-well format
Recorded measurements of TGI, one per entry
Number only, in µM; omit the unit.

Below, 2 molecules whose answers are already recorded.
[[record]]
smiles_representation = "O=C(NO)c1ccc(CN(c2cnccn2)c2cnccn2)cc1"
recorded_result = 26.4

[[record]]
smiles_representation = "Cn1cc(-c2ccc(-c3cncc(Cl)c3N3CCC4(CCNC4=O)CC3)cc2)cn1"
recorded_result = 99.9


Now for a further molecule.
Ask: Tell me measured TGI for CC[C@@]1(O)C(=O)OCc2c1cc1n(c2=O)Cc2c-1nc1cc(F)c(C)c3c1c2[C@@H](N)CC3 please.
Reply: 0.608

---

- Test system: RXF 393 renal
- experimental.protocol: NCI tumour cell line growth inhibition, 384-well format; in the data active = GI50 below about 0.43 µM; inactive = the rest
Write down the outcome that applies. Available outcomes: active, inactive

[[record]]
smiles_representation = "CC[C@@]1(O)C(=O)OCc2c1cc1n(c2=O)Cc2c-1nc1cc(F)c(C)c3c1c2[C@@H](N)CC3"
class_assignment = "active"


Ask: Tell me the recorded outcome of this test for CN1CCN(c2ccc(Nc3ncc4cc(C#N)c(=O)n(C5CCCC5)c4n3)cc2)CC1 .
Reply: inactive

Ask: What was the test verdict on Cn1c(=O)c2c(ncn2CC(=O)Nc2ccc(-c3ccccc3)nn2)n(C)c1=O ?
Reply: inactive

Ask: Please share the test call associated with Cn1cc(-c2ccc(-c3cncc(Cl)c3N3CCC4(CCNC4=O)CC3)cc2)cn1 .
Reply: inactive

Ask: Outcome? O=C(NO)c1ccc(CN(c2cnccn2)c2cnccn2)cc1
Reply: inactive
